- system-name: FGFR2 (Homo sapiens (Human), UniProt P21802)
- Sequence (P21802 22-821): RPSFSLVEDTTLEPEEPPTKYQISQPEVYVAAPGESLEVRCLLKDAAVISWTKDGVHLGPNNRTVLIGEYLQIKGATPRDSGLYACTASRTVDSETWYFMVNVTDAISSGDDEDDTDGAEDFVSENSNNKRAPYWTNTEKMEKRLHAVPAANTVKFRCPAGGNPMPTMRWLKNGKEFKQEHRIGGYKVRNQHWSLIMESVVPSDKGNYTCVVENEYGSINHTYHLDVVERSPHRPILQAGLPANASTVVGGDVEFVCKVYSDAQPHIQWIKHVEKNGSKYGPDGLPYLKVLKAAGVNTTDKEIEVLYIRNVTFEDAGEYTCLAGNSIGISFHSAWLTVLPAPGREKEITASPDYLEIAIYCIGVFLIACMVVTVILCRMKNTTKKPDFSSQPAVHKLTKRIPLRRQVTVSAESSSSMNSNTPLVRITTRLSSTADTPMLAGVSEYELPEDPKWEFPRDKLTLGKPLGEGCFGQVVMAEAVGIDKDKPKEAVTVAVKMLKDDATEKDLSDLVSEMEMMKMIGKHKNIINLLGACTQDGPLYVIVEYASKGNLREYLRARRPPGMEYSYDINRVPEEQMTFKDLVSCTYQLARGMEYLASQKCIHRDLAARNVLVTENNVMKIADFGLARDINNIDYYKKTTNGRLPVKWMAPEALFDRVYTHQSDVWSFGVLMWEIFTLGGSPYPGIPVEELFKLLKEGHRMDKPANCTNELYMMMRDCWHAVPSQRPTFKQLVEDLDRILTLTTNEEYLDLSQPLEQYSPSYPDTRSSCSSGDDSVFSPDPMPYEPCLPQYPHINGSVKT
- assay-comment: FGFR2 Biochemical Caliper Assay
pIC50: −log10 of the molar value.
experimental-endpoint: pIC50

Consider the worked cases shown below.
C=C(C)C(=O)Nc1ccc(-c2c(-c3cc(F)c(C(=O)NCC(C)(C)OC)c(F)c3)c3c(N)ncnc3n2C)cc1 ... 6.60 to 7.00
C=C(C)C(=O)Nc1ccc(-c2c(-c3ccc(OCC(=O)O)cc3)c3c(N)ncnc3n2C)cc1 ... 4.00 to 6.00
C=C(C)C(=O)Nc1ccc(-c2c(-c3ccc(Oc4nccc(C)n4)c(OCC)c3)c3c(N)ncnc3n2C)cc1 ... 4.00 to 6.00

With those in mind, consider the next compound.
Lookup: Query (compound): C=C(C)C(=O)Nc1ccc(-c2c(-c3ccc(C(=O)N4CCC5(CC5)C4)cc3)c3c(N)ncnc3n2C)cc1 ; field requested: pIC50
Found: > 7.00

###

- system-name: FGFR2 (Homo sapiens (Human))
- assay-comment: FGFR2 Biochemical Caliper Assay
pIC50: −log10 of the molar value.
experimental-endpoint: pIC50

Consider the worked cases shown below.
C=C(C)C(=O)Nc1ccc(-c2c(-c3ccc(Sc4ccccc4)nc3)c3c(N)ncnc3n2C)cc1 [Example 225] ... 6.00 to 6.60
C=CC(=O)Nc1ccc(-c2c(C3=CCC(C(=O)NC)CC3)c3c(N)ncnc3n2C)cc1 (centres unmarked) [Example 148] ... > 7.00
C=CC(=O)N1CCC(c2c(-c3ccc(OC)cc3)c3c(N)ncnc3n2C)C1 (centres unmarked) [Example 702] ... 6.00 to 6.60
C=CC(=O)N1CCC(c2c(-c3cnn(C4CCNCC4)c3)c3c(N)ncnc3n2C)C1 (centres unmarked) [Example 742] ... 4.00 to 6.00
C=CC(=O)N1CCC(c2c(-c3ccc(CN4CCCC4)cc3)c3c(N)ncnc3n2C)C1 (centres unmarked) [Example 763] ... 6.00 to 6.60
CC#CC(=O)N1CCC(n2cc(-c3c(-c4ccc(Oc5cccc(C)n5)cc4)c4c(N)ncnc4n3C)cn2)C1 (centres unmarked) [Example 635] ... 6.60 to 7.00
C=C(C)C(=O)Nc1ccc(-c2c(-c3ccc(C(=O)NCC4CCC4)cc3)c3c(N)ncnc3n2C)cc1 [Example 381] ... > 7.00

Lookup: Query (molecule): C=CC(=O)N1CCC(c2c(-c3ccc(COC)cc3)c3c(N)ncnc3n2C)C1 (centres unmarked) [Example 721] ; field requested: pIC50
Found: 6.00 to 6.60

###

- system-name: FGFR2 (Homo sapiens (Human), UniProt P21802)
- assay-comment: FGFR2 Biochemical Caliper Assay
pIC50: −log10 of the molar value.
Here, each record is paired with measured pIC50 data.

Consider the worked cases shown below.
C=CC(=O)N1CCC(n2cc(-c3c(-c4ccc(Oc5ccccn5)c(OC)c4)c4c(N)ncnc4n3C)cn2)CC1 [Example 669] ... 6.00 to 6.60
C=C(C)C(=O)Nc1ccc(-c2c(-c3ccc(C(=O)NC4COC4)cc3)c3c(N)ncnc3n2C)cc1 [Example 289] ... 6.00 to 6.60
C=CC(=O)N1CCC(c2c(-c3ccc(C(=O)N4CCC4)c(F)c3)c3c(N)ncnc3n2C)C1 (stereo not shown) [Example 727] ... 4.00 to 6.00

With those in mind, consider the next compound.
Lookup: Query (compound): C/C(=C\CN(C)C)C(=O)Nc1ccc(-c2c(-c3ccc(C(=O)N4CCCC4)cc3)c3c(N)ncnc3n2C)cc1 [Example 553] ; field requested: pIC50
Found: 6.00 to 6.60

Each recorded value in this set is attributed to patent US11780845B2.
